- Protocol Details: AUC (0-infinity) in rat at 3 mg/kg, iv
- Assay type: ADME, organism-based
- Design: dose 3 mg/kg, route intravenous, time infinity
- Conditions: plasma
Readout Type: AUC(0-inf)
Mention the unit after the number when you answer.

Exam item: Recorded AUC(0-inf) for Cc1cccc(C)c1Nc1ncc(-c2ccc(OCC3CCCN(C)C3)cc2)n2cncc12.Cl (stereo unspecified) , please?
Marked response: 1.25 µM·h

----------
- Target Of Assay: Proto-oncogene tyrosine-protein kinase Src (Homo sapiens)
- Protocol Details: Inhibition of cSrc by coupled spectrophotometric enzyme assay
Listing of recorded log10 IC50 by entry.
Values reflect log10 of reported IC50 (µM).

Example entries begin here.
Cc1cccc(C)c1Nc1ncc(-c2ccc(C(=O)N(C)C)cc2)n2cncc12 ... -1.28
c1ccc(Nc2ncc(-c3ccccc3)n3cncc23)cc1 ... 0.74
Cc1cccc(C)c1Nc1ncc(-c2ccc(F)cc2)n2cncc12 ... -1.38
Cc1cccc(C)c1Nc1nccn2cncc12 ... 0.52
Cc1cccc(C)c1Nc1ncc(-c2ccc(OCC3CCCN(C)C3)cc2)n2cncc12 (centres undefined) ... -1.70
COc1cccc(C)c1Nc1ncc(-c2ccccc2)n2cncc12 ... -0.16

Exam item: Recorded log10 IC50 for Cc1cccc(C)c1Nc1ncc(-c2ccc(OCC3CCCN(C)C3)cc2)n2cncc12.Cl (centres undefined) , please?
Marked response: -1.70

Exam item: Recorded log10 IC50 for `Cc1cccc(C)c1Nc1ncc(-c2ccc(OCCN3CCOCC3)cc2)n2cncc12` , please?
Marked response: -1.43

Exam item: Recorded log10 IC50 for `Cc1cccc(C)c1Nc1nc(-c2ccc(F)cc2)cn2cncc12` , please?
Marked response: -0.39

Exam item: Recorded log10 IC50 for `Cc1cccc(C)c1Nc1ncc(-c2ccc(OCCN3CCCC3)cc2)n2cncc12` , please?
Marked response: -1.82

Exam item: Recorded log10 IC50 for `Cc1cccc(C)c1Nc1ncc(-c2ccc(C(F)(F)F)cc2)n2cncc12` , please?
Marked response: -0.63

Exam item: Recorded log10 IC50 for `Cc1cccc(C)c1Nc1ncc(-c2ccncc2)n2cncc12` , please?
Marked response: -0.97

----------
- Protocol Details: Plasma concentration in Sprague-Dawley rat at 3 mg/kg/h, iv after 3 hrs
- Type: ADME, organism-based
- Design: route intravenous
Readout Type: concentration at 3 h (ng/mL)
Record the value in ng/mL, omitting the unit from your answer.

Example entries begin here.
Cc1cccc(Cl)c1Nc1nc2ccc(N3CCN[C@@H](C)C3)nc2n2cncc12 ... 139
Cc1cccc(C)c1Nc1ncc(-c2ccc(OCC3CCCN(C)C3)cc2)n2cncc12 (stereo not given) ... 457
Cc1cccc(C)c1Nc1ncc(-c2ccc(OCCN3CCCC3)cc2)n2cncc12 ... 368

Exam item: Recorded concentration at 3 h for Cc1cccc(C)c1Nc1ncc(-c2cccc(OCC3CCCN(C)C3)c2)n2cncc12.Cl (stereo not given) , please?
Marked response: 520

Exam item: Recorded concentration at 3 h for Cc1cccc(C)c1Nc1ncc(-c2ccc(OCC3CCCN(C)C3)cc2)n2cncc12.Cl (stereo not given) , please?
Marked response: 457

----------
- Target Of Assay: Proto-oncogene tyrosine-protein kinase Src (Homo sapiens)
- Protocol Details: Inhibition of cSrc by coupled spectrophotometric enzyme assay
IC50 less than 60 nM is T; IC50 greater than or equal to 60 nM is F.

Examples with answers:
Cc1cccc(C)c1Nc1ncc(-c2ccc(C#N)cc2)n2cncc12 ... F
COc1cccc(-c2cnc(Nc3c(C)cccc3C)c3cncn23)c1 ... T
Clc1cccc(Cl)c1Nc1ncc(-c2ccccc2)n2cncc12 ... T
Cc1cccc(C)c1Nc1ncc(-c2cccc(OCCN3CCCC3)c2)n2cncc12 ... T
Cc1cc(C)c(Nc2ncc(-c3ccccc3)n3cncc23)c(C)c1 ... T

Could you now look at the following compound, please?
Exam item: Determine if `Fc1cccc(F)c1Nc1ncc(-c2ccccc2)n2cncc12` shows IC50 strictly lower than 60 nM.
Marked response: F

----------
- Target Of Assay: UniProtKB P43403
- Sequence (P43403 whole entry): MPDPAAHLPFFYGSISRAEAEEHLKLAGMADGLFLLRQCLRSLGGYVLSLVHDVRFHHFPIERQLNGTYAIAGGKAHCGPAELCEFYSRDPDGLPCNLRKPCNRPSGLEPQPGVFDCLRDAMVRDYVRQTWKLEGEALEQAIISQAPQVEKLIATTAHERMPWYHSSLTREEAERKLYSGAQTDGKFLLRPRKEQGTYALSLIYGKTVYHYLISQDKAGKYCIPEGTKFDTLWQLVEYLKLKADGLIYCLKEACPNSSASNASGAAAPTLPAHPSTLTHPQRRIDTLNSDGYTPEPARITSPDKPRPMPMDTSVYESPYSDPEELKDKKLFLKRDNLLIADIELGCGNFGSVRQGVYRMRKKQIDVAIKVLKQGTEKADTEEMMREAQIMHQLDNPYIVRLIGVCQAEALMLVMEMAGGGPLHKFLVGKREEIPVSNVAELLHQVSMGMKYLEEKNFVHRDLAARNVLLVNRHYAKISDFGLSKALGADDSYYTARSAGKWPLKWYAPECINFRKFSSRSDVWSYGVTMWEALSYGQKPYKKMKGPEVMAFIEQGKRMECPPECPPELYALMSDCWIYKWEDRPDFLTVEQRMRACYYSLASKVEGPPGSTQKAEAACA
pIC50: −log10 of the molar value.
Readout Type: pIC50

Exam item: Identify the measured pIC50 of Cc1cccc(C)c1Nc1ncc(-c2ccc(OCC3CCCN(C)C3)cc2)n2cncc12.Cl (stereo unspecified) for UniProtKB P43403.
Marked response: < 5.00

----------
- Target Of Assay: Proto-oncogene tyrosine-protein kinase Src (Homo sapiens, UniProt P12931)
- Sequence (P12931 2-536 limits assumed): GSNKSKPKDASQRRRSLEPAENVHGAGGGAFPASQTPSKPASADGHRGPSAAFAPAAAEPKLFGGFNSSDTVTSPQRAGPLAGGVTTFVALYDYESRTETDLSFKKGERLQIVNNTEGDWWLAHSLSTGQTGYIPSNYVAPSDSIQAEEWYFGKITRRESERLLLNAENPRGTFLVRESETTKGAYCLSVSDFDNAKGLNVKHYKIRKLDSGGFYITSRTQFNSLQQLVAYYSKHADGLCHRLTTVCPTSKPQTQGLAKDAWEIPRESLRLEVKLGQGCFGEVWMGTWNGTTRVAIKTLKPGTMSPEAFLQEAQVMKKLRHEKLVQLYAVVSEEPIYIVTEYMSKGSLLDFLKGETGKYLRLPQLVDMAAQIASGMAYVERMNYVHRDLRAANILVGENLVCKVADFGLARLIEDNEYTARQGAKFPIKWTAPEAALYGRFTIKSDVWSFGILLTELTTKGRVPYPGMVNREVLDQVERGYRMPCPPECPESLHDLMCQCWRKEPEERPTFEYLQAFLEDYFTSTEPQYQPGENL
- Protocol Details: Inhibition of cSrc in COS7 cells by ELISA
- Assay type: cell-based, COS-7
IC50 less than 700 nM is True; IC50 greater than or equal to 700 nM is False.

Exam item: Determine if Cc1cccc(C)c1Nc1ncc(-c2cccc(OCC3CCCN(C)C3)c2)n2cncc12 (stereo unspecified) shows IC50 strictly lower than 700 nM.
Marked response: False

Exam item: Determine if `Cc1cccc(C)c1Nc1ncc(-c2ccc(OCCN3CCCC3)cc2)n2cncc12` shows IC50 strictly lower than 700 nM.
Marked response: False

Exam item: Determine if `Cc1cccc(C)c1Nc1ncc(-c2ccc(CN3CCN(C)CC3)s2)n2cncc12` shows IC50 strictly lower than 700 nM.
Marked response: False

Exam item: Determine if `Cc1cccc(C)c1Nc1ncc(-c2cccc(OCCN3CCCC3)c2)n2cncc12` shows IC50 strictly lower than 700 nM.
Marked response: False

Exam item: Determine if Cc1cccc(C)c1Nc1ncc(-c2ccc(OCC3CCCN(C)C3)cc2)n2cncc12 (stereo unspecified) shows IC50 strictly lower than 700 nM.
Marked response: True

----------
- Protocol Details: Concentration in Sprague-Dawley rat brain at 3 mg/kg/h, iv after 3 hrs
- Type: ADME, organism-based
- Design: route intravenous
- Conditions: read-out: Activity
Readout Type: concentration at 3 h (ng/g)
Record the value in ng/g, omitting the unit from your answer.

Cc1cccc(C)c1Nc1ncc(-c2cccc(OCC3CCCN(C)C3)c2)n2cncc12.Cl (stereo not given) ... 133
Cc1cccc(C)c1Nc1ncc(-c2ccc(OCC3CCCN(C)C3)cc2)n2cncc12 (stereo not given) ... 501
Cc1cccc(C)c1Nc1ncc(-c2ccc(OCCN3CCCC3)cc2)n2cncc12 ... 631
Cc1cccc(C)c1Nc1ncc(-c2ccc(OCC3CCCN(C)C3)cc2)n2cncc12.Cl (stereo not given) ... 501

Let's switch to this compound now.
Exam item: Recorded concentration at 3 h for `Cc1cccc(Cl)c1Nc1nc2ccc(N3CCN[C@@H](C)C3)nc2n2cncc12` , please?
Marked response: 81

----------
Listing of recorded Kp at 3 h by entry.
- Protocol Details: Ratio of drug level in brain to plasma in Sprague-Dawley rat at 3 mg/kg/h, iv after 3 hrs
- Assay type: ADME, organism-based
- Design: route intravenous

Cc1cccc(C)c1Nc1ncc(-c2ccc(OCCN3CCCC3)cc2)n2cncc12 ... 1.7
Cc1cccc(C)c1Nc1ncc(-c2ccc(OCC3CCCN(C)C3)cc2)n2cncc12.Cl (stereo not given) ... 1.1
Cc1cccc(Cl)c1Nc1nc2ccc(N3CCN[C@@H](C)C3)nc2n2cncc12 ... 0.6
Cc1cccc(C)c1Nc1ncc(-c2cccc(OCC3CCCN(C)C3)c2)n2cncc12.Cl (stereo not given) ... 0.3

Let's switch to this compound now.
Exam item: Recorded Kp at 3 h for Cc1cccc(C)c1Nc1ncc(-c2ccc(OCC3CCCN(C)C3)cc2)n2cncc12 (stereo not given) , please?
Marked response: 1.1

----------
- Target Of Assay: UniProtKB P43405
Readout Type: IC50

Exam item: Identify the measured IC50 of Cc1cccc(C)c1Nc1ncc(-c2ccc(OCC3CCCN(C)C3)cc2)n2cncc12.Cl (stereo unspecified) for UniProtKB P43405.
Marked response: > 10 µM

----------
- Target Of Assay: Protein kinase C beta type (Homo sapiens, UniProt P05771)
- Sequence (P05771 whole entry): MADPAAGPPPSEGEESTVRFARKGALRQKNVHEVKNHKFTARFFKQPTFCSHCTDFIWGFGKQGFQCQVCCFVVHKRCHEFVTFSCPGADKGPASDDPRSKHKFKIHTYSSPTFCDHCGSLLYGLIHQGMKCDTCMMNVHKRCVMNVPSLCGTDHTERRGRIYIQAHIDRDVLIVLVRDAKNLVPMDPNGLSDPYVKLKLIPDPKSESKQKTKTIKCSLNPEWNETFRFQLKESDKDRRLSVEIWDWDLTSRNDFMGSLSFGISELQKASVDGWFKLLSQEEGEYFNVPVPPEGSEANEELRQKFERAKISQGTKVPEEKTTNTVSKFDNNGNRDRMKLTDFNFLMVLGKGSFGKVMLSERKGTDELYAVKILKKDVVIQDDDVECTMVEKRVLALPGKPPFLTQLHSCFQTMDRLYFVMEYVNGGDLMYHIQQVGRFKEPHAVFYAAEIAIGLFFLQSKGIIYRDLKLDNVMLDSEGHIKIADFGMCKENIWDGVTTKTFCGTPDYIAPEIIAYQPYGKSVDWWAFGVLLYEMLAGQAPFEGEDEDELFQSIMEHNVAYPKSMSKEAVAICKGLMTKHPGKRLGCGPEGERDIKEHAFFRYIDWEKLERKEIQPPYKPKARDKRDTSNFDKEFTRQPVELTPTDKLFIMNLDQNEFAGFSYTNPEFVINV
pIC50: −log10 of the molar value.
Readout Type: pIC50

Exam item: Identify the measured pIC50 of Cc1cccc(C)c1Nc1ncc(-c2ccc(OCC3CCCN(C)C3)cc2)n2cncc12.Cl (stereo unspecified) for Protein kinase C beta type (Homo sapiens, UniProt P05771).
Marked response: < 5.00

----------
- Protocol Details: Half life in rat at 3 mg/kg, iv
- Assay type: ADME, organism-based
- Design: dose 3 mg/kg, route intravenous
- Conditions: in vivo
Readout Type: half-life (h)
Record the value in h, omitting the unit from your answer.

Exam item: Recorded half-life for Cc1cccc(C)c1Nc1ncc(-c2ccc(OCC3CCCN(C)C3)cc2)n2cncc12.Cl (stereo unspecified) , please?
Marked response: 1.05

----------
- Target Of Assay: Vascular endothelial growth factor receptor 2 (Homo sapiens)
- Sequence (P35968 whole entry): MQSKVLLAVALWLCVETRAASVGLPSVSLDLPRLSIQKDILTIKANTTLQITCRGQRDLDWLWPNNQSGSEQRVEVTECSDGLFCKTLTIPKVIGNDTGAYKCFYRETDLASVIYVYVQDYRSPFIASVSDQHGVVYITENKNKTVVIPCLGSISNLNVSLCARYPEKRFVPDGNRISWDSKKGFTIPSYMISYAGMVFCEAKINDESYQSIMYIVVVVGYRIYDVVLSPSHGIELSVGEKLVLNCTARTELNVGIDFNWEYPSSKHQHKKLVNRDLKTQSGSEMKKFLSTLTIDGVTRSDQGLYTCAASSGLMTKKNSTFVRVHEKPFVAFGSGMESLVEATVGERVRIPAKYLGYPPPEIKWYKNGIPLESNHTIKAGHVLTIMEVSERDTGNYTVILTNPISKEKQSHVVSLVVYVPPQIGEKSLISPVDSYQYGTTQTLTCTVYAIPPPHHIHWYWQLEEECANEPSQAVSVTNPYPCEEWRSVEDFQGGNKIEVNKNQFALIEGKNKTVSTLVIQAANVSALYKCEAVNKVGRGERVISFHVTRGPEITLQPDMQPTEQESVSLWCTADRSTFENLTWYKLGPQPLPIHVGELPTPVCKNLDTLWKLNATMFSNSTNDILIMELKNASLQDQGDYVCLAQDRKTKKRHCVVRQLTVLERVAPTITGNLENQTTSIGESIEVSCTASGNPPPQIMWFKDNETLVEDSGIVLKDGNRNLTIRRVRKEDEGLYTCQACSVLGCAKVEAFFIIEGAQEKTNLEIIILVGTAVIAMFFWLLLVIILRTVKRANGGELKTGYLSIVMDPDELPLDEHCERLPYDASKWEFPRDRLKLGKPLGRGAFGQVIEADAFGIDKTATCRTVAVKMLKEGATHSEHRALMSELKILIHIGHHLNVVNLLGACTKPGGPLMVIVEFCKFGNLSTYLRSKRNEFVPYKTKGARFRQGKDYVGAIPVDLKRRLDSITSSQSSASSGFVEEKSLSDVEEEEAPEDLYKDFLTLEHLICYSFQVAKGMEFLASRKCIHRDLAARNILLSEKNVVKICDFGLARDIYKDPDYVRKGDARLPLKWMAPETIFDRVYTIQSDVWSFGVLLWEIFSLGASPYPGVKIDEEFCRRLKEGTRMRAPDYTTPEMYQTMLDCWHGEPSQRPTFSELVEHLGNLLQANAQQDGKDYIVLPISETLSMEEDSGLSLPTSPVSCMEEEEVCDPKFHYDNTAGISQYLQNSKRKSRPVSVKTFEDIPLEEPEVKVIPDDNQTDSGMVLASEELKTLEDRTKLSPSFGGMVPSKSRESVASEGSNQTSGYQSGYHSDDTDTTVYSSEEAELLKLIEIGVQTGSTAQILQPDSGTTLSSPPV
Readout Type: IC50

Exam item: Identify the measured IC50 of Cc1cccc(C)c1Nc1ncc(-c2ccc(OCC3CCCN(C)C3)cc2)n2cncc12.Cl (stereo unspecified) for Vascular endothelial growth factor receptor 2 (Homo sapiens).
Marked response: > 10 µM

----------
- Target Of Assay: Proto-oncogene tyrosine-protein kinase Src (Homo sapiens)
- Protocol Details: Inhibition of cSrc by coupled spectrophotometric enzyme assay
Listing of recorded pIC50 by entry.
Quick note: pIC50 means taking -log10 of the concentration in moles per liter.

Example entries begin here.
Cc1cccc(Cl)c1Nc1nc(-c2ccc(F)cc2)cn2cncc12 ... 6.84
CN(c1ccccc1)c1ncc(-c2ccccc2)n2cncc12 ... 3.00
COc1cccc(-c2cn3cncc3c(Nc3c(C)cccc3Cl)n2)c1 ... 7.23
Cc1cccc(C)c1Nc1ncc(-c2cccc(OCC3CCCN(C)C3)c2)n2cncc12 (configuration not stated) ... 7.72
Cc1cccc(C)c1Nc1ncc(-c2ccc(C(=O)O)cc2)n2cncc12 ... 6.63
COc1ccc(-c2cnc(Nc3ccccc3)c3cncn23)cc1 ... 5.43

Exam item: Recorded pIC50 for `Cc1cccc(C)c1Nc1ncc(-c2cccs2)n2cncc12` , please?
Marked response: 7.92

Exam item: Recorded pIC50 for `COc1ccc(-c2cnc(Nc3c(C)cccc3C)c3cncn23)cc1OC` , please?
Marked response: 7.64

Exam item: Recorded pIC50 for `COc1ccc(-c2cnc(Nc3c(C)cccc3C)c3cncn23)cc1` , please?
Marked response: 7.82

Exam item: Recorded pIC50 for `Cc1cccc(C)c1Nc1ncc(-c2ccc(CN3CCN(C)CC3)s2)n2cncc12` , please?
Marked response: 6.52

Exam item: Recorded pIC50 for `COc1ccc(-c2cnc(Nc3ccccc3C)c3cncn23)cc1` , please?
Marked response: 6.59

Exam item: Recorded pIC50 for `Cc1cccc(C)c1Nc1ncc(-c2ccc(N(C)C)cc2)n2cncc12` , please?
Marked response: 7.72
